System: HL-60(TB) leukemia
TEST_PROTOCOL: NCI tumour cell line growth inhibition, 48 h
PARAMETER: TGI

>  <COMPOUND>
CO[C@H]1C(=O)[C@]2(C)[C@@H](OC)C[C@H]3OC[C@@]3(OC(C)=O)[C@H]2[C@H](OC(=O)c2ccccc2)[C@]2(O)C[C@H](OC(=O)[C@H](O)[C@@H](NC(=O)OC(C)(C)C)c3ccccc3)C(C)=C1C2(C)C

>  <TGI>
< 0.01 µM

$$$$
>  <COMPOUND>
Cc1nc2sccn2c1C(=O)NNC(N)=S

>  <TGI>
> 100 µM

$$$$
>  <COMPOUND>
Cc1ccc(-n2c3nc(=O)n(C)c(=O)c-3nc3ccccc32)c(C)c1

>  <TGI>
29.2 µM

$$$$
>  <COMPOUND>
CCC12CCC[C@@]13C=C[C@H](O3)C(C)(C)C2=O (stereo partly specified)

>  <TGI>
> 100 µM

$$$$
>  <COMPOUND>
COc1cccc(/C=N/[N-]C(N)=O)c1[O-].[Cu+2].[OH3+]

>  <TGI>
> 100 µM

$$$$

Field request: TGI | item: CCc1c(OC(C)=O)c2c(NC3OC(COC(C)=O)C(OC(C)=O)C(OC(C)=O)C3OC(C)=O)nc(SC)nc2oc1=O (stereo unspecified)
> 100 µM

Note, next up: O=c1[nH]c2ccccc2cc1-c1nnc(Cc2ccccc2)o1
21.2 µM

Note, next up: O=C1C2C(C(=O)N1Cc1ccccc1)N(Cc1ccccc1)C(=O)N2Cc1ccccc1 (stereo unspecified)
> 100 µM

Note, next up: CCNC(=S)N/N=C(/C)c1cccc(/C(C)=N\NC(=S)NCC)n1
7.9 µM

Note, next up: NC1CCC2(O)c3ccccc3C2C1 (stereo unspecified)
> 100 µM

Note, next up: CC(C)(C)O/N=C/c1cc(NC(=S)c2ccccc2)ccc1Cl
42.6 µM
